# Target of assay: T1, Peptide 8: Biotin-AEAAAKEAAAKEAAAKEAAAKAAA-Tyr-acid (N-terminal biotin; C-terminal acid)
# T1 construct: control peptide without PC
# T1 peptide: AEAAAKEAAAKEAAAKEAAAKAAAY
# Test method notes: scFv ELISA
Result type: OD450 (OD450)
The reply should contain only the number, in OD450.

Ask: Could you please provide reported OD450 for PcOxP_DB02_B02 (scFv, V domains shown, scFv in periplasmic extract) VH: EVQLLESGGGLVQPGGSLRLSCAASGFTFSDYYMEWVRQAPGKGLEWVAASRNSGNDYTTEYADSVKGRFTISRDNSKNTLYLQMNSLRAEDTAVYYCARDYYGSSYWYFDVWGQGTLVTVSS VL: DIQMTQSPSSLSASVGDRVTITCTASESLYSSKHKVHYLAWYQQKPGKAPKLLIYGASNRLIGVPSRFSGSGSGTDFTLTISSLQPEDFATYYCAQFYWYPLTFGGGTKVEIK ? Thanks!
Result: 0.05

---
Ask: Could you please provide reported OD450 for PcOxP_DB01_E04 (scFv, V domains shown, scFv in periplasmic extract) VH: EVQLLESGGGLVQPGGSLRLSCAASGFTFSDAYMEWVRQAPGKGLEWVAASRNKANDYTTEYADSVKGRFTISRDNSKNTLYLQMNSLRAEDTAVYYCARDYYGSSYWYFDTWGQGTLVTVSS VL: DIQMTQSPSSLSASVGDRVTITCTASESLYSSKHKVHYLAWYQQKPGKAPKLLIYGASNRYDGVPSRFSGSGSGTDFTLTISSLQPEDFATYYCAQFYSYPLTFGGGTKVEIK ? Thanks!
Result: 0.04

Ask: Could you please provide reported OD450 for PcOxP_DB02_G06 (scFv, V domains shown, scFv in periplasmic extract) VH: EVQLLESGGGLVQPGGSLRLSCAASGFTFSSYYMEWVRQAPGKGLEWVAASRNQANDYTTEYADSVKGRFTISRDNSKNTLYLQMNSLRAEDTAVYYCARDYYGSPYWYFDVWGQGTLVTVSS VL: DIQMTQSPSSLSASVGDRVTITCTASESLYSSKHKVHYLAWYQQKPGKAPKLLIYGVSNRYIGVPSRFSGSGSGTDFTLTISSLQPEDFATYYCAQFYSYPLTFGGGTKVEIK ? Thanks!
Result: 0.05
